- Tested on: BDF1 mice, B16 melanoma ip, median survival T/C
- assay method text: NCI In Vivo Anticancer Drug Screen. Data for tumor model B16 Melanoma (intraperitoneal) in B6D2F1 (BDF1) mice
- protocol conditions: endpoint: median survival time; dose: 50.0 mg/kg/injection; schedule: Q04DX003 (ip); vehicle: Klucel (hydroxypropylcellulose) (HPC); higher = longer survival
Toxic doses and inconclusive results are not listed.

# compound, target under test, T/C
data = [
    ("O=[N+]([O-])c1cccc2ncccc12", "BDF1 mice, B16 melanoma ip, median survival T/C", "100 % of control"),
    ("C=CCc1c(C)ccc(C)c1OC", "BDF1 mice, B16 melanoma ip, median survival T/C", "101 % of control"),
    ("C[N+](C)(C)CCOc1ccc(Cl)cc1", "BDF1 mice, B16 melanoma ip, median survival T/C", "107 % of control"),
    ("CCOc1c(Br)cc(Br)cc1/C=N/NS(=O)(=O)c1ccc(C)cc1", "BDF1 mice, B16 melanoma ip, median survival T/C", "104 % of control"),
    ("O=[N+]([O-])c1ccc([S][Pb]([c]2ccccc2)([c]2ccccc2)[c]2ccccc2)cc1", "BDF1 mice, B16 melanoma ip, median survival T/C", "88 % of control"),
    ("CCCCCCCCCCCCCCCC#N", "BDF1 mice, B16 melanoma ip, median survival T/C", "96 % of control"),
    ("CC1OC2COC(C)OC2C(C(O)COC(c2ccccc2)(c2ccccc2)c2ccccc2)O1 (centres undefined)", "BDF1 mice, B16 melanoma ip, median survival T/C", "92 % of control"),
    ("Cc1cc(Cl)ccc1NC(=O)Nc1ccc(Cl)c(Cl)c1", "BDF1 mice, B16 melanoma ip, median survival T/C", "90 % of control"),
    ("Cc1cc(C)c(NC(=O)Nc2ccccc2C)c(C)c1", "BDF1 mice, B16 melanoma ip, median survival T/C", "97 % of control"),
]

====

# T/C annotations
- Tested on: BDF1 mice, B16 melanoma ip, median survival T/C
- assay method text: NCI In Vivo Anticancer Drug Screen. Data for tumor model B16 Melanoma (intraperitoneal) in B6D2F1 (BDF1) mice
- protocol conditions: endpoint: median survival time; dose: 200.0 mg/kg/injection; schedule: Q01DX009 (ip); vehicle: saline with Tween-80; higher = longer survival
Inconclusive results and toxic doses are left out. Square brackets hold non-standard residues; d marks the D form. Peptide text beside a SMILES is read from it. * marks the point of attachment. ξ: configuration not given here. ξF = NC(Cc1ccccc1)C(=O)O; ClAc = O=C(CCl)*

# compound, T/C
rows = [
    ("CCOC(=O)C(=O)CC(=O)/C=C/c1ccccc1", "97 % of control"),
    ("O=C(Nc1ccccc1C(F)(F)F)c1ccc(Cl)cc1Cl", "92 % of control"),
    ("O=C(Nc1cc(C(F)(F)F)ccc1Cl)c1ccc(Cl)cc1Cl", "88 % of control"),
    ("CC(=O)OCC1OC(n2ncc(=O)[nH]c2=O)C(OC(C)=O)C1OC(C)=O (stereo not given)", "95 % of control"),
    ("CCCCCCCCCCCCCCCCCS(=O)S(=O)O (stereo not given)", "97 % of control"),
    ("CC(C)CC(C)(c1ccc(O)cc1)c1ccc(O)cc1", "98 % of control"),
    ("Cc1cc(O)c(C(C)C)cc1S(=O)(=O)O (tested in a mixture with another compound)", "100 % of control"),
    ("Nc1cc(S(N)(=O)=O)ccc1SSc1ccc(S(N)(=O)=O)cc1N", "93 % of control"),
    ("CCOC(=O)C(C(=O)OCC)c1cc(NC(=O)c2ccccc2)ccc1NC(=O)c1ccccc1", "91 % of control"),
    ("NC(=O)CN1C(=O)c2ccccc2C1=O", "104 % of control"),
    ("Cc1ccc(C(=O)CCCCl)cc1C", "106 % of control"),
    ("Cc1c(C)c2c(c(C)c1O)CCC(C)(CCCC(C)CCCC(C)CCCC(C)C)O2 (stereo not given)", "90 % of control"),
    ("O=CNC(Cc1cnc[nH]1)C(=O)O (stereo not given)", "103 % of control"),
    ("OC(c1ccccc1)C1(c2ccccc2)OCCO1 (stereo not given)", "95 % of control"),
    ("CCC(C)NC(=O)Nc1cccc(Cl)c1C (stereo not given)", "96 % of control"),
    ("O=C(CCl)NCC(=O)NC(Cc1ccccc1)C(=O)O (stereo not given) (ClAc-Gly-[ξF]-OH)", "93 % of control"),
    ("O=C(Nc1nncs1)c1ccncc1", "109 % of control"),
    ("ClCC1C(CCl)C2(Cl)C(Cl)=C(Cl)C1(Cl)C2(Cl)Cl (stereo not given)", "92 % of control"),
    ("CCN(CC)C(=S)SC(=S)N(CC)CC", "103 % of control"),
    ("CC(=O)OCC(COC(C)=O)(COC(C)=O)COC(C)=O", "105 % of control"),
    ("CC(=O)Oc1c(Br)cc(Br)cc1-c1ccccc1", "98 % of control"),
    ("C#CCSC(=S)NNc1ccccc1", "112 % of control"),
    ("COC(CCC#N)c1ccc(Cl)cc1 (stereo not given)", "96 % of control"),
    ("COc1ccc(-c2ccc(OC)c(OC)c2OC)c(N)c1", "107 % of control"),
    ("CCC(=O)Nc1cc(C(F)(F)F)ccc1Cl", "105 % of control"),
    ("CNC(=O)Nc1nccs1", "91 % of control"),
    ("O=C(NC(CO)C(=O)OCc1ccccc1)OCc1ccccc1 (stereo not given)", "113 % of control"),
    ("CC(=O)/C(C)=C\\c1ccccc1", "95 % of control"),
    ("CC(C)=CN1CCCCC1", "86 % of control"),
    ("CCOc1cc([N+](=O)[O-])c(OCC)cc1Cl", "97 % of control"),
]
